- System: Helicobacter pylori
- Assay Method Text: Inhibition of Helicobacter pylori invasion into human AGS cells at 2.5 uM after 6 hrs
- Format: functional
Answer each item with its documented inhibition at 2.5 µM.
Give just the number in %; leave the unit off.

Exercise: Need inhibition at 2.5 µM of COc1cc(/C=C/C(=O)c2cc(OC)c(OC)c(OC)c2)ccc1O , thanks.
Solution: 57.6

Exercise: Need inhibition at 2.5 µM of Cc1ncc([N+](=O)[O-])n1CCO , thanks.
Solution: 20
